Reported composite z-score values for a set of molecules
- Test system: Wnt5a (protein binding on small-molecule microarray)
- protocol-description: small molecules binding Wnt5a protein – biophysical, small-molecule microarray, 635/667 nm fluorescence, primary screen (AID 1142);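 further: fluorescence read at 667 nm with signal to noise per printed feature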
- condition: 635 nm fluorescence, higher = more signal
Write the number on its own, no unit after it.

Previously resolved entries follow.
COCCCNC(=O)[C@@]1(Sc2ccc(C)cc2)CC(=O)N(Cc2ccccc2Cl)[C@@H]1c1ccc(CO)cc1	0.349
C=CCOC(=O)[C@H]1[C@@H]2C(=O)O[C@@H](c3ccccc3)[C@@H](c3ccccc3)N2[C@@H](c2ccc(OCCOC(=O)[C@@H]3C[C@@H]4C(=O)N5CCC[C@H]5C(=O)N4[C@@H]3c3cccc(OCCO)c3)cc2)[C@]12C(=O)Nc1ccc(I)cc12	0.535
COC(=O)[C@@]1(Cc2ccc(F)cc2)[C@H]2c3cc(C(=O)N(C)C)n(Cc4cc(C)n(C)n4)c3C[C@H]2CN1C(=O)c1ccccc1	0.692

Query (molecule): Cc1ccc(/C=C/C=O)cc1 ; field requested: composite z-score
-0.355

Query (molecule): O=C(NCCN1CCOCC1)[C@@H]1c2ccccc2C(=O)N(Cc2cc(C(F)(F)F)cc(C(F)(F)F)c2)[C@H]1c1ccc(CO)cc1 ; field requested: composite z-score
0.556

Query (molecule): C=CC[C@]1(C(N)=O)COC(c2ccc(OCCCO)cc2)=N1 ; field requested: composite z-score
0.469

Query (molecule): CCOC(=O)C1=CC[C@@H](c2ccc(C(F)(F)F)cc2)N(S(=O)(=O)c2ccc(C)cc2)[C@H]1c1ccccc1 ; field requested: composite z-score
0.328

Query (molecule): O=C1O[C@H](c2ccccc2)[C@H](c2ccccc2)N2[C@H]1[C@@H](C(=O)N1CCN(c3ncccn3)CC1)[C@]1(C(=O)Nc3ccc(C#CC4=CCCCC4)cc31)[C@H]2c1ccccc1OCCO ; field requested: composite z-score
0.406

Query (molecule): COCCOC(=O)N1C(=O)[C@@]2(c3cc(C#CC4=CCCCC4)ccc31)[C@H](c1ccc(OCCO)cc1)N1[C@H](c3ccccc3)[C@H](c3ccccc3)OC(=O)[C@H]1[C@@H]2C(=O)N1CCc2cc(OC)c(OC)cc2C1 ; field requested: composite z-score
0.687

Query (molecule): O=C1C2C=CC(C(O)COCc3ccccc3)N(Nc3ccc([N+](=O)[O-])cc3)C2C(=O)N1c1ccccc1 (stereo not given) ; field requested: composite z-score
0.43

Query (molecule): COCCOC(=O)N1C(=O)[C@@]2(c3ccccc31)[C@H](c1ccc(OCCO)cc1)N1[C@H](c3ccccc3)[C@H](c3ccccc3)OC(=O)[C@H]1[C@@H]2C(=O)N1CCc2cc(OC)c(OC)cc2C1 ; field requested: composite z-score
0.349

Query (molecule): O=C1[C@@]23C=C(Br)[C@H](C[C@@H]2COC3)[C@]12CO2 ; field requested: composite z-score
-0.139

Query (molecule): O[C@@H](Cc1ccccc1)[C@@H](/C=C/C1CC1)NCc1cccc(Cl)c1 ; field requested: composite z-score
-1.11

Query (molecule): O=C1O[C@@H](c2ccccc2)[C@@H](c2ccccc2)N2[C@@H](c3ccccc3OCCO)[C@]3(C(=O)Nc4ccccc43)[C@@H](C(=O)O)[C@H]12 ; field requested: composite z-score
0.205

Query (molecule): C#CCOc1ccc(C[C@@H](C(=O)OC)N(CC#C)[C@@H](/C=C/C2CC2)[C@H](O)Cc2ccccc2)cc1 ; field requested: composite z-score
-0.589
